Reported values of EC50 (read off the curve) for individual entries
Molecular target: T1, human SIRPA_V10 (human, UniProt P78324 31-504)
T1 construct: FLAG-tagged (pFLAG V5-DEST), on 293α cells; also called human SIRPA Variant 10
T1 sequence (P78324 other isoform, or with tags, fused parts or gaps limits assumed): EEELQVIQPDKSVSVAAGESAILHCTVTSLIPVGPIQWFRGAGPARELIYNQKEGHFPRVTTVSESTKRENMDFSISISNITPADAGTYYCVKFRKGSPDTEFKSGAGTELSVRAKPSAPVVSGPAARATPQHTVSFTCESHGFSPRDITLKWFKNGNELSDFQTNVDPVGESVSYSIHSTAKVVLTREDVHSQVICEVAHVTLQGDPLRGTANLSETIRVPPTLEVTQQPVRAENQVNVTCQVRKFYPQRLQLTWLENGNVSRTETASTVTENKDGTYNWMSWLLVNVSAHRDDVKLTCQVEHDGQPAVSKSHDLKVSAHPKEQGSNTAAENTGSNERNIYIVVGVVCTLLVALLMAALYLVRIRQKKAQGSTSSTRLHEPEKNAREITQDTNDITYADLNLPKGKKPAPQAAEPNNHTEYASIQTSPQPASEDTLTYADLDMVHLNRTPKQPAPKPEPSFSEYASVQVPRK
Test: cell-based ELISA on 293α cells expressing FLAG-tagged SIRPA_V10; Abs 490 normalized to FLAG tag [ii]
Procedure: The 293a cells, described in Example 1)-6, were prepared at 5× 10⁵ cells/mL in a 10% FBS-containing DMEM medium. pFLAG V5-DEST-SIRPA_V1-V10, pFLAG V5-DEST-monkey SIRPA, pFLAG V5-DEST-mouse SIRPA, or pFLAG V5-DEST was introduced into the cells using Lipofectamine LTX (Invitrogen), and 100 μL each was aliquoted to a 96-well plate (Corning Incorporated) and cultured overnight in a 10% FBS-containing DMEM medium at 37° C. under a 5% CO₂ condition. […]

binder	EC50 (read off the curve)
humanized anti-SIRPA antibody hD13_H1L4 (antibody, human IgG4 S228P, kappa, F234A L235A, V domains shown, hH1 heavy chain (IgG4proFALA) and hL4 kappa light chain; also called hD13_HIL4; hD13_HIL4h) VH: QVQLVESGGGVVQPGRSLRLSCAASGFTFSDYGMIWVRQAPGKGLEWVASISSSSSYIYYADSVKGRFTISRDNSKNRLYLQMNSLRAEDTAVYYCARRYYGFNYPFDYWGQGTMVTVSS VL: DTVLTQSPDSLAVSLGQRATINCGASKSVRTYMHWYQQKPGQQPKLLIYSASNLEAGVPSRFSGSGSGTDFTLTISSLQAEDVAVYYCQQSNEPPYTFGQGTKVEIKR	~0.03 µg/mL

Recorded EC50 (read off the curve) of human chimeric anti-SIRPA antibody cD13 (antibody, human IgG4 S228P, kappa, F234A L235A, V domains shown, Human IgG4proFALA heavy chain, human kappa light chain; also called cD13 (IgG4pf); human chimeric antibody D13) VH: EVQLVESGGGLVQPGRSLKLSCLASGFTFSDYGMIWVRQAPGKGLEWVASISSSSSYIYYADTVKGRFTISRENAKNTLFLHMTSLRSEDTALYYCARRYYGFNYPFDYWGQGVMVTVSS VL: DTVLTQSPALAVSLGQRVTISCGASKSVRTYMHWYQQKSGQQPKLLIYSASNLEAGVPSRFSGSGSGTDFTLTIDPVEADDIANYYCQQSNEPPYTFGAGTKLELKR , please. ~0.03 µg/mL
